All values here come from the RNAGym collection of RNA variant scans (doi:10.7554/elife.90254).

B1: LINE1-full (parent)
chain: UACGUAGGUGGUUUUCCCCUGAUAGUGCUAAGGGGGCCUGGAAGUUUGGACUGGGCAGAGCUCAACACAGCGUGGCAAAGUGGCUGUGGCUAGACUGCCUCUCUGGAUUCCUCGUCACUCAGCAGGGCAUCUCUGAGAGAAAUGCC

variants of: B1; test: self-cleavage, relative activity (ratio to wild type); higher = more cleavage; in vitro, sequencing; the parent is a self-cleaving ribozyme
Cut-off 1 on self-cleavage, inclusive. At or above means 1; below means -1.

Sequence text	Category
UACGUAGGUGGUUUUCCCCUGAUAGUGCUAAGGGGGCCUGGAAGUUUGGACGGGGCAGAGCUCAACACAGCGUGGCAAAGUGGCUGCGGCUAGACUGCCUCUCUGGAUUCCUCGUCACUCAGCAGGGCAUCUCUGAGAGAAAUGCC	-1
UACGUAGGUGGUUUUCCCCUGAUAGUGCUAAGGGGGCCUGGAAGUUUGGACUGGGCCGAGCUCAACACAGCGUGGCAAAGUGGCUGUGGCUAGACUGCCUCUCUGGAUUCCUCGUCACUCAGCAGGGCAUAUCUGAGAGAAAUGCC	-1
UACGUAGGUGGUUUUCCCCUGAUAGUGCUAAGGGGGCCUGGAAGUUUGGACCGGGCAGAGCUCAACACAGCGUGGCAAAGUGGCUGUGGCUAGACUGCCUCUCUGGAUUCCUCGUCCCUCAGCAGGGCAUCUCUGAGAGAAAUGCC	-1
UACGUAGGUGGUUUUCCCCAGAUUGUGCUAAGGGGGCCUGGAAGUUUGGACUGGGCAGAGCUCAACACAGCGUGGCAAAGUGGCUGUGGCUAGACUGCCUCUCUGGAUUCCUCGUCACUCAGCAGGGCAUCUCUGAGAGAAAUGCC	1
UACGUAGGUGGUUUUCCCCUGAUAGGGCUAAGGGGGCCUGGAAGUUUGGACUGGGCAGAGCUCAACACAGCGCGGCAAAGUGGCUGUGGCUAGACUGCCUCUCUGGAUUCCUCGUCACUCAGCAGGGCAUCUCUGAGAGAAAUGCC	-1
UACGUAGGUGGUUUUCCCCUGAUAGUGCUAAGGGGGCCUGGAAGUUUGGACUGGGCAGGGCUCAACACAGCGUGGCAAAGUGGCUGUGGCUAGACUGCCUCUCUGGAUUCCUCCUCACUCAGCAGGGCAUCUCUGAGAGAAAUGCC	-1
UACGUAGGUGGUUUUCCCCUGAUAGUGCUAAGGGGGCCUGGAAGUUUGGACUGGGCAGAGCUCAACACAGCGUGGCAAAGUGGCUGUGGCUAGACUGCCCCUCUGGAUUCCUCGUCACUCGGCAGGGCAUCUCUGAGAGAAAUGCC	1
UACGUAGACGGUUUUCCCCUGAUAGUGCUAAGGGGGCCUGGAAGUUUGGACUGGGCAGAGCUCAACACAGCGUGGCAAAGUGGCUGUGGCUAGACUGCCUCUCUGGAUUCCUCGUCACUCAGCAGGGCAUCUCUGAGAGAAAUGCC	-1
AACGUAGGUGGUUUUCCCCUGAUAGUGCUAAGGGGGCCUGGAAGUUUGGACUGGGCAGAGCUCAACACAGCGUGGCAAAGUGGCUGCGGCUAGACUGCCUCUCUGGAUUCCUCGUCACUCAGCAGGGCAUCUCUGAGAGAAAUGCC	-1
UACGUAGGUGGUUUUCCCCUGAUAGUGCUAAGGGGGCCUGGAAGUUUGGACUGGGCAGAGCUCAACACAGCGUGGCAAAGUGGCUGUGGCUAGACUGCCUCUCUGGAUUCCUCGUCACUCAGCAGGGCAGCUCUGAGAGAAACGCC	1
UACGUAGGUGGUUUUCCCCUGAUAGUGCUAAGGGGGCCUGGAAGCUUGGACUGGGCAGAGCUCAACACAGCGUGGCAAAGUGGCUGUGGCUAGACUGCCUCUCUGGAUUCCUCGUCACUCAGCAGGGCAUCUCUGAGAGAAAUUCC	1
UACGUAGGUGGUUUUCCCCUGAUAGAGCUAAGGGGGCCUGGAAGUUUGGACUGGGCAGAGCUCAACACAGCAUGGCAAAGUGGCUGUGGCUAGACUGCCUCUCUGGAUUCCUCGUCACUCAGCAGGGCAUCUCUGAGAGAAAUGCC	-1
UACGUAGGUGGUUUUCCCCUGAUAGUGCUAAGGGGGCCUGGAAGUCUGGACUGGGCAGAGCUCAACACAGGGUGGCAAAGUGGCUGUGGCUAGACUGCCUCUCUGGAUUCCUCGUCACUCAGCAGGGCAUCUCUGAGAGAAAUGCC	-1
UACGUAGGUGGUUUUCCCCUGAUAGUGCUAAGGGGGCCUGGAAGUCUGGACUGGGCAGAGCUCAACACAGCGUGGCAAAGUGGCUGUGGCGAGACUGCCUCUCUGGAUUCCUCGUCACUCAGCAGGGCAUCUCUGAGAGAAAUGCC	-1
UACGUAGGUGGUUUUCCCCUGAUAGUGCUAAGGGGGCCUGGAAGUCUGGACUGGGCAGAGCUCAACACAGCGUGGCAAAGUGGCUGUGGCUAGACUGCCUCUCUGGAUUCCUCGUCACUCCGCAGGGCAUCUCUGAGAGAAAUGCC	1
UACGUAGGUGGUUUUCCCCUGAUAGUGCUAAGGGGGCCUGGAAGUUUGGACUGGGCAGAGCUCAACACAGCGUGGCAAAGUGGCUGUGGCUAGACUGCCUCUCUGGAUCCCUCGUCACUCAGCAUGGCAUCUCUGAGAGAAAUGCC	1
UACGUAGGUGGUUUUCCCCUGAUAGUGCUAAGGGGGCCUGGAAGUUUGGACUGGGCAGAGCUCAACACAGCGUGGCAAAAUGGCUGUGGCUAGACUGCCUCUCUGGAUUCCUCGUCACUCAGCAGGGCAUCUCUGAGGGAAAUGCC	1
UACGUAGGUGGUGUUCCCCUGAUAGUGCUAAGGGGGCCUGGAAGUUUGGACUGGGCAGAGCUCAACACAGCGUGGCAAAGUGGCUGUGGCUAGACUGCCUCUCUGGAUUCCUCGUCACUCAGCAGGGCAUCUCUGAGAGAAAAGCC	1
UACGUAGGUGGUAUUCCCCUGAUAGUGCUAAGGGGGCCUGGAAGUUUGGACUGGGCAGAGCUCAACACAGCGUGGCAAAGUGGCUGUGGCUAGACUGCCUCUCUGGAUUCCUCGUCACUCAGCGGGGCAUCUCUGAGAGAAAUGCC	-1
AACGUAGGUGGUUUUCCCCUGACAGUGCUAAGGGGGCCUGGAAGUUUGGACUGGGCAGAGCUCAACACAGCGUGGCAAAGUGGCUGUGGCUAGACUGCCUCUCUGGAUUCCUCGUCACUCAGCAGGGCAUCUCUGAGAGAAAUGCC	1
UACGUAGGUGGUUUUCCCCUGAUAGUGCUAAGGGGGCCUGGAAGUUUGGACUGGGCAGAGCUCAACACAGCGUGGCAAAGUGGCUGUGGCUAGACUGCCUCUCUGGAUUCCUCGUCACUUAGCAGAGCAUCUCUGAGAGAAAUGCC	1
UACGUAGGAGGUUUUCCCCUGAUAGUGCUAAGGGGGCCUGGAAGUAUGGACUGGGCAGAGCUCAACACAGCGUGGCAAAGUGGCUGUGGCUAGACUGCCUCUCUGGAUUCCUCGUCACUCAGCAGGGCAUCUCUGAGAGAAAUGCC	1
UACGUAGGUGGUUUUCCCCUGAUAGUGCUAAGGGGGCCUGGAAGUUUGGACUGGGCAGAGCUCAACACAGCGUGGCGAAGUGGCUGUAGCUAGACUGCCUCUCUGGAUUCCUCGUCACUCAGCAGGGCAUCUCUGAGAGAAAUGCC	-1
UACGUUGGUGGUUUUCCCCUGAUAGUGCUAAGGGGGCCUGGAAGUUUGGACUGGGCAGAGCUCAACACAGCGUGGCAAAGUGGCUGUGGCUAGACUGCCUCUCUGGAUUCCUCGUCACUCAGCAGGGCAUCUCUGAGAGAAAGGCC	1
UACGUAGGUGGUUUUCCCCUGAUAGUGCUAUGGGGGCCUGGAAGUUUGGACUGGGCAGAGCUCAACACAGCGUGGCAAAGUGGCUGUGGCUAGACUGCCUCUCUGGAUUCCUCGUCGCUCAGCAGGGCAUCUCUGAGAGAAAUGCC	1
UACGUAGGUGGUUUUCCCCUGACAGUGCUAAGGGGGCCUGGUAGUUUGGACUGGGCAGAGCUCAACACAGCGUGGCAAAGUGGCUGUGGCUAGACUGCCUCUCUGGAUUCCUCGUCACUCAGCAGGGCAUCUCUGAGAGAAAUGCC	1
UACGUAGGGGGUUUUCCCCUGAUAGUGCUAAGGGGGCCUGGAAGUUUGGACUGGGCAGAGCUCAACACAGCGUGGCAAAGUGGCUGUGGCUAGACUGCCUCCCUGGAUUCCUCGUCACUCAGCAGGGCAUCUCUGAGAGAAAUGCC	1
UACGUAGGUGGUUUUCCCCUGAUAGUGCUAAGGGGGCCUGGAAGUUUGGACUGGGCAGAGCACAACACAGCGUGGCAAAGUGGCUGUGGCUAGACUGCAUCUCUGGAUUCCUCGUCACUCAGCAGGGCAUCUCUGAGAGAAAUGCC	-1
UACGUAGGUGGUUUUCCCCUGAUAGUGCUAAGGGGGCCUGGAAGUUUGGACUGGGCAGAGCUCAACACAGCGUGGCAAAGUGGCUGUGGUUAGACUGCCUCUCUGGAUUCCCCGUCACUCAGCAGGGCAUCUCUGAGAGAAAUGCC	-1
UACGUAGGCGGUUUUCCCCUGAUAGUGCUAAGGGGGCCUGGAAGUUUGGAAUGGGCAGAGCUCAACACAGCGUGGCAAAGUGGCUGUGGCUAGACUGCCUCUCUGGAUUCCUCGUCACUCAGCAGGGCAUCUCUGAGAGAAAUGCC	-1
UACGUAGGUGGUUUUCCCCUGAUAGUGCUAAGGGGGCCUGGAAGUUUGGACUGGGCAGAGCUCAACACAGCGUGGCAAAGUGGCUGUGGCUAGACUGCCACUCUGGAUUCCUCGUCACUCAGCAGGGCACCUCUGAGAGAAAUGCC	1
UACGUAGGUGGUUUUCCCCUGAUAGUGCUAAGGGGGCCUGGAAGUUUGGACAGGGCAGAGCUCAACACAGCGUGGCAAGGUGGCUGUGGCUAGACUGCCUCUCUGGAUUCCUCGUCACUCAGCAGGGCAUCUCUGAGAGAAAUGCC	1
UACGUAGGUGGUUUUCCCCUGAUAGUGCUAAGGAGGCCUGGAAGUUUGGACUGGGCAGAGCUCAACACAGCGUGGCAAAGUGGCUGUGGCUAGAAUGCCUCUCUGGAUUCCUCGUCACUCAGCAGGGCAUCUCUGAGAGAAAUGCC	-1
UACGUAGGUGGAUUUCCCCUGAUAGUGCUAAGGGGGCCUGGAAGUUUGGACUGGGCAGAGCUCAACACAGCGUGGCAAAGUGGCUGAGGCUAGACUGCCUCUCUGGAUUCCUCGUCACUCAGCAGGGCAUCUCUGAGAGAAAUGCC	-1
UACGUAGGUGGUUUUCCCCUGAUAGUGCUAAGGGGGCCUGGGAGUUUGGACUGGGCAGAGCUUAACACAGCGUGGCAAAGUGGCUGUGGCUAGACUGCCUCUCUGGAUUCCUCGUCACUCAGCAGGGCAUCUCUGAGAGAAAUGCC	-1
UACGUAGGUGGUUUUCCCCUGAUAGUGCUAAGGAGGCCUGGAAGUUUGGACUGGGCAGAGCUCAACACAGCGUGGCAAAGUGGCUGUGGCUAGACUGCCUCUCUGGAUUCCUCGUCACUCAGCAGGGCAUCUCUGAGGGAAAUGCC	1
UACGUAGGUGGUUUUCCCCUGAUAGUGCUAAGGGGGCCUGGAAGUAUGGACUGGGCAGAGCUCAACACAGCGUGGCAAAGUGGCUGUGGCUAGACUGCCUCUCUGGAUUCCUCGUCACUCAGCAGGGCAUCUCUGAGAGAAAUGUC	1
